Reported pKi by item:
target: Human immunodeficiency virus type 1 protease (Human immunodeficiency virus 1, UniProt Q72874)
pKi: −log10 of the molar value.
Measure: pKi

>>> number("CC(C)(C)C(NC(=O)OCc1ccccc1)C(=O)N[C@@H](Cc1ccccc1)[C@H](CO)[C@@H](O)[C@H](Cc1ccccc1)NC(=O)[C@@H](NC(=O)OCc1ccccc1)C(C)(C)C (single isomer, unassigned; diastereomer B)")
6.59
>>> number("CC(C)(C)[C@H](NC(=O)OCc1nc2ccccc2[nH]1)C(=O)N[C@@H](Cc1ccccc1)[C@@H](O)[C@H](CO)[C@H](Cc1ccccc1)NC(=O)[C@@H](NC(=O)OCc1nc2ccccc2[nH]1)C(C)(C)C")
7.89
>>> number("CC(C)C(NC(=O)OCc1ccccc1)C(=O)N[C@@H](Cc1ccccc1)[C@@H](CO)[C@H](O)[C@H](Cc1ccccc1)NC(=O)[C@@H](NC(=O)OCc1ccccc1)C(C)C (single isomer, unassigned; diastereomer A)")
7.57
>>> number("CC(C)(C)[C@H](NC(=O)OCc1nc2ccccc2[nH]1)C(=O)N[C@@H](Cc1ccccc1)[C@H](O)[C@@H](CO)[C@H](Cc1ccccc1)NC(=O)[C@@H](NC(=O)OCc1nc2ccccc2[nH]1)C(C)(C)C")
7.54
